# literature pull: UniProt:P49841 Ki
endpoint name: Ki

* CCc1cc(Nc2nc(-c3ccccc3)nc3ccccc23)[nH]n1 | < 100 nM
* Fc1cccc(F)c1COc1cccc(Nc2nccc(-c3nccs3)n2)c1 | < 100 nM
* N#Cc1ccc(NCCNc2nc(-c3ccc(F)cc3F)nc3ccccc23)nc1 | < 100 nM
* Cc1cc(Nc2nc(-c3ccncc3)nc3cc(Cl)ccc23)[nH]n1 | 100 to 1000 nM
* FC(F)(F)c1ccccc1-c1nc(Nc2n[nH]c3ccccc23)cc(-c2ccccn2)n1 | 100 to 1000 nM
* Cc1cc(Nc2cc(-c3ccccc3)nc3ccccc23)n[nH]1 | 1000 to 20000 nM
* c1ccc(Sc2nc(Nc3cc(C4CC4)[nH]n3)c3ccccc3n2)cc1 | < 100 nM
* CC(=O)N1[C@H](C)CN(c2cc(-n3cnc(Nc4ccc(NC(=O)NC(C)(C)C)cc4)n3)ccn2)C[C@@H]1C | > 1000 nM
* Nc1n[nH]c2cc(=O)n(-c3ccccc3)nc12 | < 4000 nM
* O=c1cc2[nH]nc(Nc3nc(-c4ccccc4)nc4ccccc34)c2nn1-c1ccccc1 | 100 to 1000 nM
* FC(F)(F)c1ccccc1-c1nc(Nc2n[nH]c3cc(Br)ccc23)c2ccccc2n1 | < 100 nM
* Cc1cnc(Nc2ccccc2)nc1-c1c[nH]c(C(=O)NC(CO)c2cccc(C(F)(F)F)c2)c1 (stereo not drawn) | 100 to 1000 nM
* COc1cccc(Nc2nc(Nc3cc(C)[nH]n3)c3ccccc3n2)c1 | 100 to 1000 nM
* Clc1cccc(Sc2nc(Nc3cc(C4CC4)[nH]n3)c3ccccc3n2)c1 | < 100 nM
* Fc1ccccc1-c1cccc(Nc2nccc(-c3nccs3)n2)c1 | < 100 nM
* COc1ccccc1Nc1nnc2ccc(Sc3ccccc3)nn12 | < 2000 nM
* c1ccc(-c2nc(Nc3cc(C4CC4)n[nH]3)c3ccccc3n2)cc1 | < 100 nM
* Cc1cc(Nc2nc(-c3c(C)cccc3C)nc3ccccc23)n[nH]1 | < 100 nM
* FC(F)(F)c1ccccc1-c1cc2ccccc2c(Nc2n[nH]c3ccccc23)n1 | 100 to 1000 nM
* COc1cccc(Nc2nccc(-c3nccs3)n2)c1 | < 100 nM
* c1ccc2c(c1)CCCN2c1nc(Nc2cc(C3CC3)n[nH]2)c2ccccc2n1 | < 100 nM
* CCC(=O)Nc1ccc(Oc2nc(Nc3cc(C)[nH]n3)cc(-c3ccccc3)n2)cc1 | 100 to 1000 nM
* c1cc(Nc2nccc(-c3nccs3)n2)cc(OCc2ccc3c(c2)OCO3)c1 | < 100 nM
* Cc1cnc(NCC2CCCO2)nc1-c1c[nH]c(C(=O)NC(CO)c2ccccc2)c1 (stereo not drawn) | < 100 nM
* N#Cc1ccc(-c2nnc3ccc(NCC(N)=O)nn23)cc1 | < 2000 nM
* CC(=O)N1[C@H](C)CN(c2cc(-n3cnc(Nc4ccc(N5CCN(S(=O)(=O)c6ccc(C)cc6)CC5)cc4)n3)ccn2)C[C@@H]1C | > 1000 nM
* CCNc1ncc(C)c(-c2c[nH]c(C(=O)NC(C(=O)OC)c3ccccc3)c2)n1 (stereo not drawn) | > 1000 nM
* COc1cccc2c(Nc3n[nH]c4c(F)cc(F)cc34)nc(-c3ccccc3C(F)(F)F)nc12 | < 100 nM
* Cc1cc(Nc2nc(N3CCCCC3)nc3ccccc23)[nH]n1 | < 100 nM
* Cc1cc(Nc2nc(Sc3ccc(Br)cc3)nc3ccccc23)n[nH]1 | < 100 nM
* c1ccc(-c2cnoc2-c2c[nH]c3ncccc23)cc1 | 1000 to 12500 nM
* COc1ccccc1COc1cccc(Nc2nccc(-c3nccs3)n2)c1 | < 100 nM
* Cc1cc(Nc2cc(-c3ccccc3C)nc(Sc3ccc4ccccc4c3)n2)n[nH]1 | 100 to 1000 nM
* Cc1cc(Nc2nc(COc3ccc(Cl)cc3)nc3c2CCCC3)n[nH]1 | 100 to 1000 nM
* c1ccc2c(Nc3n[nH]c4ccccc34)nc(-n3ccnc3)nc2c1 | < 100 nM
* c1ccc(-c2nc(Nc3ncn[nH]3)c3ccccc3n2)cc1 | 100 to 1000 nM
